Test: Metabolic stability in mouse liver microsomes assessed as intrinsic clearance at 3 uM measured upto 50 mins by LC-MS analysis
Type: ADME, Microsome
result-type: CLint (µL/min/mg)
Just the number please, in µL/min/mg, no unit attached.

## Task Using the record for `CN(CC1CCCC1)c1ncnc2[nH]c(-c3ccc(CO)cc3)nc12` , report its CLint.
## Result 243

###

Experiment: Kinetic aqueous solubility of compound at pH 7.4 at 500 uM incubated for 90 mins by spectrophotometry analysis
Format: physicochemical
Conditions: buffer, read-out: Kinetic_solubility
result-type: solubility kinetic at […], 500 µM (µM)
Just the number please, in µM, no unit attached.

## Task Using the record for `CN(CC1CCCC1)c1ncnc2[nH]c(-c3ccc(CO)cc3)nc12` , report its solubility kinetic at […], 500 µM.
## Result 3.5

###

Molecular target: Macrophage colony-stimulating factor 1 receptor (Homo sapiens)
Sequence (P07333 whole entry): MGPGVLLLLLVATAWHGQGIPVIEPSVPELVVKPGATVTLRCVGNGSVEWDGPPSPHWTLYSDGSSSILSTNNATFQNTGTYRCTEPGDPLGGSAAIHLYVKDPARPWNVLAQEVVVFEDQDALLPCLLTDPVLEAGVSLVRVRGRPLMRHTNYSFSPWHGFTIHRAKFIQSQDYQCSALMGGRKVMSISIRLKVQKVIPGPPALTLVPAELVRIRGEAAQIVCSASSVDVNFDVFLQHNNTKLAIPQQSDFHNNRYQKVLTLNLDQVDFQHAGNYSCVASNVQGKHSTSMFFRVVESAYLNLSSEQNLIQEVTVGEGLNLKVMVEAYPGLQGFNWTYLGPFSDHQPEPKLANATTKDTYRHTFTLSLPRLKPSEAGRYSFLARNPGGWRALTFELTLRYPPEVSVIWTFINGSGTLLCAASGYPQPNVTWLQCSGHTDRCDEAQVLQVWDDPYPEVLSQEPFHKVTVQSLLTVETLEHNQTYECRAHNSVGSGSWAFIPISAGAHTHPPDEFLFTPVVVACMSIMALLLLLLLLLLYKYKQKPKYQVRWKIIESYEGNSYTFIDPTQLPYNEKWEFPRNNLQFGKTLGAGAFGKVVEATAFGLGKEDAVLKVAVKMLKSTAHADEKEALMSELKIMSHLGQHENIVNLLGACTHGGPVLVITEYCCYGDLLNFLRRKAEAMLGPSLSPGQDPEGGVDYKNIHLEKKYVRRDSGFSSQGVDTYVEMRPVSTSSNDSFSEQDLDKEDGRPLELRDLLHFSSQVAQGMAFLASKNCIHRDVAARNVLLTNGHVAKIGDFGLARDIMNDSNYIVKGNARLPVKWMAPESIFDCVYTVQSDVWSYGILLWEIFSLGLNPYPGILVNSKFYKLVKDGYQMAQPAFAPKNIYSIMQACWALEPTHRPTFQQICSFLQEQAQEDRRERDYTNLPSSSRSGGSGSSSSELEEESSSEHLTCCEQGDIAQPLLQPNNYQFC
Assay: Binding affinity to non-autoinhibited form of CSF1R (unknown origin) assessed as dissociation constant incubated for 1 hr by qPCR based Hill equation analysis
result-type: Kd (nM)
Just the number please, in nM, no unit attached.

## Task Using the record for `CN(CC1CCCC1)c1ncnc2[nH]c(-c3ccc(CO)cc3)nc12` , report its Kd.
## Result 220

###

Assay: Metabolic stability in human liver microsomes assessed as intrinsic clearance at 3 uM measured upto 50 mins by LC-MS analysis
Type: ADME, Microsome
result-type: CLint (µL/min/mg)
Just the number please, in µL/min/mg, no unit attached.

## Task Using the record for `CN(CC1CCCC1)c1ncnc2[nH]c(-c3ccc(CO)cc3)nc12` , report its CLint.
## Result 36.4
